Sourced from the supplement of paper PMC11061612

- Test system: DG-75 (Burkitt's Lymphoma)
- protocol_description: combination Emax (second highest fraction inhibited in the dose matrix, 72 h); higher = more inhibition; extreme values may be limits of the assay
Entries annotated with measured combination Emax
API note: the answer field is a bare number with no unit suffix.

Use these answered entries as a reference point.
- molecule: "CN(CCO)CC[C@H](CSc1ccccc1)Nc1ccc(S(=O)(=O)NC(=O)c2ccc(N3CCC([C@@H](O)c4ccccc4-c4ccc(Cl)cc4)CC3)cc2)cc1S(=O)(=O)C(F)(F)F [AZD4320] + CN(C)CCCOc1ccc(-c2ccc3ncc4c(c3c2)n(C2CCOCC2)c(=O)n4C)cn1 [AZD0156] (first compound max 1 µM, 7x7, partner max 1 µM)"
  combination Emax: 0.336
- molecule: "C=CCn1c(=O)c2cnc(Nc3ccc(N4CCN(C)CC4)cc3)nc2n1-c1cccc(C(C)(C)O)n1 [AZD1775] + C[C@@H]1COCCN1C2=NC(=NC(=C2)C3(CC3)[S@](=N)(=O)C)C4=C5C=CNC5=NC=C4 [AZD6738] (first compound max 1 µM, partner max 10 µM)"
  combination Emax: 0.978

I would be grateful if you could share the reported combination Emax for CC(=O)Nc1cccc(-n2c(=O)n(C3CC3)c(=O)c3c(Nc4ccc(I)cc4F)n(C)c(=O)c(C)c32)c1 [Trametinib] + Cc1nc(-c2cn3c(n2)-c2ccc(-c4cnn(C(C)(C)C(N)=O)c4)cc2OCC3)n(C(C)C)n1 [Taselisib] (first compound max 1 µM, 7x7, partner max 10 µM) .
0.307
